Data provenance: paper PMC6792352

Test system: GH3-TRE-Luc cell line
Measurement conditions: read-out: AC50 (uM) modified / 1000; Tox21_110001=Tox21_200596; viability, 1 nM T3 present, 24 h
Quantity kind: CC50

- CCCCCCCCCCCCn1cc[n+](C)c1: 4.11 µM

---

Test protocol: in vitro
Measurement conditions: rat, gh3-tre-luc cells, AC50 (uM) modified / 1000, Tox21_110001=Tox21_303039; viability, 1 nM T3 present, 24 h
Quantity kind: CC50 at 24 h

* COc1ccc(N)cc1 | > 100 µM

---

System: GH3-TRE-Luc cell line
Measurement conditions: read-out: AC50 (uM) modified / 1000; Tox21_110001=Tox21_112605; viability, 1 nM T3 present, 24 h
Quantity kind: CC50 (µM)

• O=C(CCCCCCC(=O)Nc1ccccc1)NO [Suberoylanilide hydroxamic acid] = 2.46
